Data credit: patent US20170176436A1

target system: human recombinant AMACR 1A (Homo sapiens, UniProt Q9UHK6)
Construct: made in house
Sequence (Q9UHK6 whole entry): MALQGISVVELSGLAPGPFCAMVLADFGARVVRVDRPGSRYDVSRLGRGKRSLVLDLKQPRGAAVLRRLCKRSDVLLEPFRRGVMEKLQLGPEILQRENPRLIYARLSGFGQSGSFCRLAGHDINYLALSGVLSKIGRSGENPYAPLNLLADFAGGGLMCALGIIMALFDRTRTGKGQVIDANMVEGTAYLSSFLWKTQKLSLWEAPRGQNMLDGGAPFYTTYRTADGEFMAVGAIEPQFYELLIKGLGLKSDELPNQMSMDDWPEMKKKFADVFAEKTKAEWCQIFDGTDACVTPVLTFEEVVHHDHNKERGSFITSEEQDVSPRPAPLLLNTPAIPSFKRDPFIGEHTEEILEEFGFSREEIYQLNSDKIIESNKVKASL
assay comment: Measurement of inhibitor potency using the elimination assay (1H NMR)
Type: biochemical
measurement conditions: inhibitor 100 μM incubated with enzyme 10 minutes at room temperature before substrate; enzyme 0.06 mg/mL; substrate 2S,3R-3-fluoro-2-methyldecanoyl-CoA 100 μM; 30° C. 1 hour
Binary call on Average reduction in conversion: true (1) from 10% upward, false (0) beneath that.

molecule	answer label
CC(C(=O)SCCNC(=O)CCNC(=O)C(O)C(C)(C)COP(=O)(O)OP(=O)(O)OCC1OC(n2cnc3c(N)ncnc32)C(O)C1OP(=O)(O)O)c1cccc(C(=O)c2ccccc2)c1 (centres unmarked)	false (0)
CC(C(=O)SCCNC(=O)CCNC(=O)C(O)C(C)(C)COP(=O)(O)OP(=O)(O)OCC1OC(n2cnc3c(N)ncnc32)C(O)C1OP(=O)(O)O)c1cccc(Oc2ccccc2)c1 (centres unmarked)	true (1)
COc1ccc2cc(C(C)C(=O)SCCNC(=O)CCNC(=O)C(O)C(C)(C)COP(=O)(O)OP(=O)(O)OCC3OC(n4cnc5c(N)ncnc54)C(O)C3OP(=O)(O)O)ccc2c1 (centres unmarked)	false (0)
CC(C(=O)SCCNC(=O)CCNC(=O)C(O)C(C)(C)COP(=O)(O)OP(=O)(O)OCC1OC(n2cnc3c(N)ncnc32)C(O)C1OP(=O)(O)O)c1ccc(-c2ccccc2)c(F)c1 (centres unmarked)	false (0)
CC(C)Cc1ccc(C(C)C(=O)SCCNC(=O)CCNC(=O)C(O)C(C)(C)COP(=O)(O)OP(=O)(O)OCC2OC(n3cnc4c(N)ncnc43)C(O)C2OP(=O)(O)O)cc1 (centres unmarked)	true (1)
